# Test system: LXRa homodimer (NR concentration 270 nM)
# assay overview: PBM binding z-score (relative to random genomic background probes); higher = stronger binding; sequences stand for … in GC…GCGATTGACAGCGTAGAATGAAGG
Returns MET if the recorded PBM binding z-score is greater than or equal to -0.1, and NOT MET otherwise.

Input: Decide: PBM binding z-score of TAGCCTAGGTCATGCCGGCCAGTATAGTGTCGGC >= -0.1?
Output: MET

Input: Decide: PBM binding z-score of AATACAGGGTCACTAGTCCAGAGTAGGTACGAAT >= -0.1?
Output: MET

Input: Decide: PBM binding z-score of ATCGAACGGTCGAAGGTGAGTATACCCACCCGAA >= -0.1?
Output: NOT MET

More entries:
Input: Decide: PBM binding z-score of CGTCCAGGGTCATAGGAGGTCAGTGAAGACAGAT >= -0.1?
Output: MET

Input: Decide: PBM binding z-score of ACAGATAGGTGATGAAGGTAACTCAGGCTATCAT >= -0.1?
Output: NOT MET

Input: Decide: PBM binding z-score of CAAACTAGGTAACAGAGGTCAAAGTCCGTGCGTA >= -0.1?
Output: MET

Input: Decide: PBM binding z-score of ATCGAAAGTTCGAGGTGAGTATAGAGAAAGGGAA >= -0.1?
Output: NOT MET

Input: Decide: PBM binding z-score of TAGCCTAGGTCATTCAGGGGCCATTATAGAAAGC >= -0.1?
Output: MET

Input: Decide: PBM binding z-score of CCTAGTTGATCAGGAGGTCACACACCGGATATGA >= -0.1?
Output: MET

Input: Decide: PBM binding z-score of GGTCGGAGGACAAGGTCAGAGCTTTGTCCGTAGA >= -0.1?
Output: NOT MET

Input: Decide: PBM binding z-score of TGCATGAGGTTAAAGATCAGGGAACGTGGCGTCG >= -0.1?
Output: MET

* * *

# Tested on: LXRa homodimer (NR concentration 270 nM)
# assay overview: PBM binding z-score (relative to random genomic background probes); higher = stronger binding; sequences stand for … in GC…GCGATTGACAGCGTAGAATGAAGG
Returns Criterion met if the recorded PBM binding z-score is greater than or equal to 0.2, and Criterion not met otherwise.

Use the examples below as a reference point.
Input: Decide: PBM binding z-score of ATCTATAGGTAACCAAGTTCAGTGAATGCCGAAC >= 0.2?
Output: Criterion met

Input: Decide: PBM binding z-score of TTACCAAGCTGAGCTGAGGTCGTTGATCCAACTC >= 0.2?
Output: Criterion not met

Input: Decide: PBM binding z-score of CGTCAAAGTTCAACTAAGGTAACGTAAAGCACGC >= 0.2?
Output: Criterion met

Input: Decide: PBM binding z-score of TCTAGTTGGTCAAAGATCACACACTCGAAATGCG >= 0.2?
Output: Criterion met

Input: Decide: PBM binding z-score of ATCTCTAGGTAAAGATAGTTCCGTGAATGCAAAT >= 0.2?
Output: Criterion not met

Input: Decide: PBM binding z-score of GGAACGAGGGCATTCGAGTTGATTGCATGGCGAT >= 0.2?
Output: Criterion not met

Input: Decide: PBM binding z-score of ACTAGCAGGCCACGGGTCACTCAAGATTAGTCCG >= 0.2?
Output: Criterion not met

Input: Decide: PBM binding z-score of AGAATGAGGTTATACGTAGATCAGGGCAGAAAGT >= 0.2?
Output: Criterion met

Now consider a different sequence.
Input: Decide: PBM binding z-score of TGAATGAGGTTGAAGATCAGGGAACGTGGCGTCG >= 0.2?
Output: Criterion not met

* * *

# Tested on: LXRa:RXRa (NR concentration 270 nM, RXRa partner concentration 90 nM)
# assay overview: PBM binding z-score (relative to random genomic background probes); higher = stronger binding; sequences stand for … in GC…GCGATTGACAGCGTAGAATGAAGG
Returns yes if the recorded PBM binding z-score is greater than or equal to 4, and no otherwise.

Use the examples below as a reference point.
Input: Decide: PBM binding z-score of ATCTCTAGGTAAAAGTTAAGTGAATCCCGAGGAT >= 4?
Output: no

Input: Decide: PBM binding z-score of ATATGTAGGTTAGCTGGGGTCAGTCAGACTAGGC >= 4?
Output: yes

Input: Decide: PBM binding z-score of CGTCCAAGGTCAGAGCGGTCAGTGAATGCCGAGT >= 4?
Output: yes

Input: Decide: PBM binding z-score of TCATATAGATAAAGGTGAAAGTCGAACGATATGA >= 4?
Output: no

Input: Decide: PBM binding z-score of GCTAGCAGGCCCTTTGGGTCACTCAATGACGGGC >= 4?
Output: no

More entries:
Input: Decide: PBM binding z-score of CTCGAAAGGTCGGTTGAGGTGAGTATGCGGATAA >= 4?
Output: no

* * *

# Test system: PPARg homodimer (NR concentration 180 nM)
# assay overview: PBM binding z-score (relative to random genomic background probes); higher = stronger binding; sequences stand for … in GC…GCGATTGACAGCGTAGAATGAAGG
assay endpoint: PBM binding z-score
Number only, no unit.

Worked cases, answers included:
The sequence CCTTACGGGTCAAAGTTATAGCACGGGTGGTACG showed PBM binding z-score equal to 2.1

The sequence CATACAGGGTGAGCTAGGCCAGAGTAGGGACGGC showed PBM binding z-score equal to -0.692

The sequence TCTAGTTGGTCACGGAGGTCACATACGACGGGTA showed PBM binding z-score equal to 2.46

The sequence ATCACTAGGTAACAAGTTCAGTGAAAGAGAGGAC showed PBM binding z-score equal to 1.31

The sequence CCTCGGAGGACACAAGGTCAGAGCTGTCCGCTTT showed PBM binding z-score equal to 1.72

The sequence ATCTCTAGGTAAAGTTCAGTGGAAGATCGATAGA showed PBM binding z-score equal to 1.29

The sequence CCTAGTTGGTAAAGGTCACACACGCTATAGGTAC showed PBM binding z-score equal to 5.56

The sequence ACTAGCAGGCCAAGCTTGGGTCACTCAAACAAAG showed PBM binding z-score equal to 0.296

More entries:
The sequence CCTAGCAGGCCGATCTGGGTCACTCAAGGCTTGA showed PBM binding z-score equal to 0.337

The sequence GCGACTGGGGCATCGGCAGGTTACCATAACTTAA showed PBM binding z-score equal to 0.364

The sequence ATCTCTAGGTAAAGATAGGTCAGTGAATGCAAAT showed PBM binding z-score equal to 1.17

The sequence ACTATTAGTTGACTTAGGGCCACCGATACGACGC showed PBM binding z-score equal to 0.408

The sequence GGAACGAGGGCAAGCTGATAGCAGAGTTTGATGG showed PBM binding z-score equal to -0.391

* * *

# Test system: PPARg:RXRa 270nM:90nM, anti-RXR (NR concentration 270 nM, RXRa partner concentration 90 nM)
# assay overview: PBM binding z-score (relative to random genomic background probes); higher = stronger binding; sequences stand for … in GC…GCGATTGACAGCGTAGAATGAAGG
Returns Fulfilled if the recorded PBM binding z-score is greater than or equal to 4, and Not fulfilled otherwise.

Input: Decide: PBM binding z-score of TTACCAAGATGAAAGGTCGTTGATGCACGCCTTG >= 4?
Output: Fulfilled

Input: Decide: PBM binding z-score of TCATATAGGTAAATGCTAGGTGCAAGTCCGATCT >= 4?
Output: Not fulfilled

Input: Decide: PBM binding z-score of AGAATGAGGTTATTGAGATCAGGGAATTGCGGTC >= 4?
Output: Not fulfilled

Input: Decide: PBM binding z-score of GCGACTGGGGCAAAGCGGGTTACCATAAGGTTGG >= 4?
Output: Not fulfilled

Input: Decide: PBM binding z-score of ATATGTAGGTTAGCTGGGGACATTCAGACTAGGC >= 4?
Output: Not fulfilled

Input: Decide: PBM binding z-score of ACTAGCACGCCAAGGGTCACTCAAGATTAGTCCG >= 4?
Output: Not fulfilled

Input: Decide: PBM binding z-score of CAAACTAGGTCACAGAGGTAAAAGTCCGTGCGTA >= 4?
Output: Fulfilled

Input: Decide: PBM binding z-score of ATATGTAGGTTACATCCGGGTCATACAGGCTATG >= 4?
Output: Fulfilled

* * *

PBM binding z-score for assorted sequences
# System: PPARg:RXRa 30nM:10nM, anti-RXR (NR concentration 30 nM, RXRa partner concentration 10 nM)
# assay overview: PBM binding z-score (relative to random genomic background probes); higher = stronger binding; sequences stand for … in GC…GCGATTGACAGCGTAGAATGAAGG
Number only, no unit.

Worked cases, answers included:
The sequence ATATGTAGGTTACATCCGGGTTATTCAGGCTATG showed PBM binding z-score equal to 2

The sequence TCTCGGAGGACGCGAAAGGTCAGAGCTCGACATC showed PBM binding z-score equal to 2.47

The sequence CAAACTAGATCAAAGGTCAAAGTCGAGCCAACCA showed PBM binding z-score equal to 11.1

The sequence CATCGGAGGACAACAGGAGGTCAGAGCTGCCAGA showed PBM binding z-score equal to -0.516

The sequence TCTAGTTGGTCAAAGGTCACACAATCGAAATGCG showed PBM binding z-score equal to 11.7

The sequence ATTCAAAGTTCATCTAGGTAACGTAAGATATGCT showed PBM binding z-score equal to 1.84

More entries:
The sequence TCATATAGGTAAATGCTGGGTGAAAGTCCGATCT showed PBM binding z-score equal to 3.63

The sequence ATCTCTAGGTAACAAGTTCATTGAAAGAGAGGAC showed PBM binding z-score equal to 1.55

The sequence ATCTCTAGGTAAAGATCAGTGAAAGATCGATAGA showed PBM binding z-score equal to 0.487

meta.source: the supplement of paper PMC6555819
